Biological target: ALK(G1202R) (Homo sapiens, UniProt Q9UM73, G1202R)
Sequence (Q9UM73 19-1620 G1202R): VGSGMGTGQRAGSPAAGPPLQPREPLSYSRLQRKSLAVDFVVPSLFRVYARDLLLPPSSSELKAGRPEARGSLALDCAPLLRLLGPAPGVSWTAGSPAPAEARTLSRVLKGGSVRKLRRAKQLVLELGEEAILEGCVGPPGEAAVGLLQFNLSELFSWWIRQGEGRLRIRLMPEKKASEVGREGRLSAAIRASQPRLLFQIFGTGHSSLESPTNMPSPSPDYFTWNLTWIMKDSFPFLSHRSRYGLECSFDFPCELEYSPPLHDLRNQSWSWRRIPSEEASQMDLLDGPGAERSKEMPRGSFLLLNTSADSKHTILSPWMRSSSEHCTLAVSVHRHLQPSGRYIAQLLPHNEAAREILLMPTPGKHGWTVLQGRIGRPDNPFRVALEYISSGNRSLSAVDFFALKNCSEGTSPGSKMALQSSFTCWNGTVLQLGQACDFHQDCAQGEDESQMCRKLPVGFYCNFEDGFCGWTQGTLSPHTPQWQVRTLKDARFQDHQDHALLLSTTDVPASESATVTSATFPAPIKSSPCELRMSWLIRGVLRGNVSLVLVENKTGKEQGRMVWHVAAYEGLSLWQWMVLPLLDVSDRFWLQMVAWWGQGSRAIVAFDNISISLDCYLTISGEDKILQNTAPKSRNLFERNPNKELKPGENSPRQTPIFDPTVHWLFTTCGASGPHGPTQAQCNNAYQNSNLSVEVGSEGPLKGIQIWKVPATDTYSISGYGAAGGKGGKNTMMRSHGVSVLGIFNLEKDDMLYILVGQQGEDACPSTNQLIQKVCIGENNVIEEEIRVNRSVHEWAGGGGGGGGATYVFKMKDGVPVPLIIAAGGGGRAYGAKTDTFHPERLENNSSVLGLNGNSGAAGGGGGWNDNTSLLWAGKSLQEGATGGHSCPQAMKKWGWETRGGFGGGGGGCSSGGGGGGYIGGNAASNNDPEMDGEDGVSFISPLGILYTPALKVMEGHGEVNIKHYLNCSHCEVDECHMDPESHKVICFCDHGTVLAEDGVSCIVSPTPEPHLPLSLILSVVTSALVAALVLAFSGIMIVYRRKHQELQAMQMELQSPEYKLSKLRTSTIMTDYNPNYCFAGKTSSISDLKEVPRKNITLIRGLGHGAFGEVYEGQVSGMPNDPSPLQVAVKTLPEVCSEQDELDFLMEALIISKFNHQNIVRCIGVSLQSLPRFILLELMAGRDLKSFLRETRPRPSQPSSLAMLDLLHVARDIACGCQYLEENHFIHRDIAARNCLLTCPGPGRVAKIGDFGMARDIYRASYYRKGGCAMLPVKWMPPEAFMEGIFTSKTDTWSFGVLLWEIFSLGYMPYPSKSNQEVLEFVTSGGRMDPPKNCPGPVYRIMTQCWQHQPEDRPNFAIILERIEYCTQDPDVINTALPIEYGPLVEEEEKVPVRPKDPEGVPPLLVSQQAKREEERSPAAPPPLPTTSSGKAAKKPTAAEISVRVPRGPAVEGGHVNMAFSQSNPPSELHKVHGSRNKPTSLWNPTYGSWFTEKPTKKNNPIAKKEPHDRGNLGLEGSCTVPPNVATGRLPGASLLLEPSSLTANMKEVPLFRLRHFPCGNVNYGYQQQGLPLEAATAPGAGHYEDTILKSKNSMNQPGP
Assay: In vitro kinase inhibitory activity assay, Experimental method 1 (ADP-Glo)
Settings: final ATP 50 µM, read-out: Kinase half maximal inhibitory concentration IC50 ALK^G1202R

Compound | Assay target | IC50 / nM
CON=C1NC(C)(C)COc2ncc(F)cc2CN2c3nc4c1cnn4cc3OC[C@H]2C(F)F [Compound 005] | ALK(G1202R) (Homo sapiens, UniProt Q9UM73, G1202R) | 3.8
COCCON=C1NC(C)(C)COc2ccc(F)cc2CN2c3nc4c1cnn4cc3OC[C@H]2C(F)F [Compound 003] | ALK(G1202R) (Homo sapiens, UniProt Q9UM73, G1202R) | 12.2
CCON=C1NC(C)(C)COc2ccc(F)cc2CN2c3nc4c1cnn4cc3OC[C@H]2C(F)F [Compound 002] | ALK(G1202R) (Homo sapiens, UniProt Q9UM73, G1202R) | 27.8
CON=C1NC(C)(C)COc2ccc(F)cc2CN2c3nc4c1cnn4cc3OC[C@H]2C(F)F [Compound 001] | ALK(G1202R) (Homo sapiens, UniProt Q9UM73, G1202R) | 16.9

====

Target: CYP2C19 (Homo sapiens)
Sequence (P33261 whole entry): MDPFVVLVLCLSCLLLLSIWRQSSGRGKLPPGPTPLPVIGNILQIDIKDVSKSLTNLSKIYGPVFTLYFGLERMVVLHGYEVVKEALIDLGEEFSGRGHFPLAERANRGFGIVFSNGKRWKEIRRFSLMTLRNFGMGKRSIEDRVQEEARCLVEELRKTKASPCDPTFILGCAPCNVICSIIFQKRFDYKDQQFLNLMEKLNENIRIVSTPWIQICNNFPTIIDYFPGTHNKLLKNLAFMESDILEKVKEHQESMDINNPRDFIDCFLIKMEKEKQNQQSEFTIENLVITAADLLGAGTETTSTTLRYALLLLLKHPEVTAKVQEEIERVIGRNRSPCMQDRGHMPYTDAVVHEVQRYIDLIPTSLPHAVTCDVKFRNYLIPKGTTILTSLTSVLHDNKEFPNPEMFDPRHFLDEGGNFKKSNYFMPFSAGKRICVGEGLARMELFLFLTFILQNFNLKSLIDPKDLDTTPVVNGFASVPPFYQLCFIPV
pIC50: −log10 of the molar value.
Quantity: pIC50

Compound | Quantity | Experimental result
Cc1nn2cc3c4nc2c1C(=O)NC1(CC1)COc1ccc(F)cc1CN4[C@H](C(F)F)CO3 [Compound 016] | pIC50 | 4.64

====

Assay: HMS CLint (liver) test, hepatocyte metabolic stability
Type: in vitro ADME
Details: Mouse hepatocytes, 0.5 × 10^6 cells/mL, up to 90 minutes

Structure string | Unit abbreviation | CLint scaled
CC#Cc1nn2cc3c4nc2c1C(=O)NC(C)(C)COc1ccc(F)cc1CN4[C@H](C(F)F)CO3 | mL/min/kg | 291

====

Assay: HMS CLint (liver) test, hepatocyte metabolic stability
Assay type: in vitro ADME
Conditions: Human hepatocytes, 0.5 × 10^6 cells/mL, up to 90 minutes
Quantity: CLint scaled

Structure string | Quantity | Experimental result
CC#Cc1nn2cc3c4nc2c1C(=O)NC(C)(C)COc1ccc(F)cc1CN4[C@H](C(F)F)CO3 | CLint scaled | < 17.8 mL/min/kg

====

Molecular target: ALK(L1196M) (Homo sapiens, UniProt Q9UM73, L1196M)
Sequence (Q9UM73 19-1620 L1196M): as the sequence (Q9UM73 19-1620 G1202R) above, with L1178M, R1184G counted along it
Test: In vitro kinase inhibitory activity assay, Experimental method 1 (ADP-Glo)
Conditions: final ATP 50 µM, read-out: Kinase half maximal inhibitory concentration IC50 ALK^L1196M
Description: The kinase inhibitory activity assays of the compounds against ALK, ALK^L1196M, ALK^G1202R, ALK^G1202R/L1196M, ROS1, and TRKB were conducted at Wuhan Heyan Biotechnology Co., Ltd. or Hefei PreceDo Biotechnology Co., Ltd. […] Each concentration of the compounds was further diluted 20-fold using 1X kinase buffer to prepare compound working solutions containing 5% DMSO. […] Chemiluminescence was then measured using the PerkinElmer Nivo multimode plate reader with an integration time of 0.5 seconds. […]
pIC50: −log10 of the molar value.
Quantity: pIC50

Structure string | Experimental result
CON=C1NC(C)(C)COc2ccc(F)cc2CN2c3nc4c1cnn4cc3OC[C@H]2C(F)F | 7.89

====

Molecular target: CYP1A2 (Homo sapiens, UniProt P05177)
Sequence (P05177 whole entry): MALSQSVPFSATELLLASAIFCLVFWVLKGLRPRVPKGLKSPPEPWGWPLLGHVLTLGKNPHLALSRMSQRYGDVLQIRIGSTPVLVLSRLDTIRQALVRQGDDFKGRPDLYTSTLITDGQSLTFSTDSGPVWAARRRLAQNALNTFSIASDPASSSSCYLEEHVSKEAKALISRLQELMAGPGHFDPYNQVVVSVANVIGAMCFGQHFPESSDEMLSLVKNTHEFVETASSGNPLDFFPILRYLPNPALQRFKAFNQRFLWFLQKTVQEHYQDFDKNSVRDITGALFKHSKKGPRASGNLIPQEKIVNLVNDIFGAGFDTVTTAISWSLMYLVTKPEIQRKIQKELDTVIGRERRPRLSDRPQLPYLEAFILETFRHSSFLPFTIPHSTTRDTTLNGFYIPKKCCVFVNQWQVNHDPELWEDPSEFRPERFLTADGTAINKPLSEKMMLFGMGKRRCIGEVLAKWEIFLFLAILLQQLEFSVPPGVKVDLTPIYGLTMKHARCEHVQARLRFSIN
Quantity: IC50

Compound | Experimental result
Cc1nn2cc3c4nc2c1C(=O)NC1(CC1)COc1ccc(F)cc1CN4[C@H](C(F)F)CO3 [Compound 016] | > 50 µM

====

Below, each of the compounds is paired with its reported pIC50 value.
System: Ba/F3-TEL-TRKB
Experiment: Anti-proliferative activity test on Ba/F3 cell lines (CellTiter-Glo)
Format: cell-based
Details: Mus musculus, BaF3; 72 hours; read-out: Half maximal inhibitory concentration IC50 for cells Ba/F3-TEL-TRKB
pIC50: −log10 of the molar value.
Quantity: pIC50

Structure string | Quantity | Experimental result
C#Cc1nn2cc3c4nc2c1C(=O)NC(C)(C)COc1ccc(F)cc1CN4[C@H](C(F)F)CO3 | pIC50 | 8.46
O=C1N[C@H]2C[C@H](C2)Oc2ccc(F)cc2CN2c3nc4c1c(Br)nn4cc3OC[C@H]2C(F)F | pIC50 | 8.74
N#Cc1nn2cc3c4nc2c1C(=O)N[C@H]1C[C@H](C1)Oc1ccc(F)cc1CN4[C@H](C(F)F)CO3 | pIC50 | 9.10
CC#Cc1nn2cc3c4nc2c1C(=O)NC(C)(C)COc1ccc(F)cc1CN4[C@H](C(F)F)CO3 | pIC50 | 8.16
Cc1nn2cc3c4nc2c1C(=O)NC1(CC1)COc1ccc(F)cc1CN4[C@H](C(F)F)CO3 | pIC50 | 9.22
CC1(C)COc2ccc(F)cc2CN2c3nc4c(c(Br)nn4cc3OC[C@H]2C(F)F)C(=O)N1 | pIC50 | 8.11
CC1(C)COc2ncc(F)cc2CN2c3nc4c(cc3OC[C@H]2C(F)F)ncn4C(=O)N1 | pIC50 | 9.52
N#Cc1nn2cc3c4nc2c1C(=O)NC1(CCC1)COc1ccc(F)cc1CN4[C@H](C(F)F)CO3 | pIC50 | 8.64
O=C1NC2(CC2)COc2ccc(F)cc2CN2c3nc4c(cc3OC[C@H]2C(F)F)ncn41 | pIC50 | 9.70
Cc1nc2cc3c4nc2n1C(=O)NC(C)(C)COc1ccc(F)cc1CN4[C@H](C(F)F)CO3 | pIC50 | 8.28

====

Target: TRKB (Homo sapiens)
Construct: purchased Carna
Assay: In vitro kinase inhibitory activity assay, Experimental method 1 (ADP-Glo)
Type: biochemical
Settings: read-out: Kinase half maximal inhibitory concentration IC50 TRKB
Description: The kinase inhibitory activity assays of the compounds against ALK, ALK^L1196M, ALK^G1202R, ALK^G1202R/L1196M, ROS1, and TRKB were conducted at Wuhan Heyan Biotechnology Co., Ltd. or Hefei PreceDo Biotechnology Co., Ltd. […] Each concentration of the compounds was further diluted 20-fold using 1X kinase buffer to prepare compound working solutions containing 5% DMSO. […] Chemiluminescence was then measured using the PerkinElmer Nivo multimode plate reader with an integration time of 0.5 seconds. […]

Compound | IC50 / nM
CC1(C)COc2ncc(F)cc2CN2c3nc4c(cnn4cc3OC[C@H]2C(F)F)C(=S)N1 [Compound 004] | 2.4
CON=C1NC(C)(C)COc2ncc(F)cc2CN2c3nc4c1cnn4cc3OC[C@H]2C(F)F [Compound 005] | 1.2
CON=C1NC(C)(C)COc2ccc(F)cc2CN2c3nc4c1cnn4cc3OC[C@H]2C(F)F [Compound 001] | 2.2

====

Biological target: TRKB (Homo sapiens)
Construct: purchased Carna
Assay: In vitro kinase inhibitory activity assay, Experimental method 2 (ADP-Glo)
Type: biochemical
Conditions: Experimental method 2; ATP 5.0 µM, substrate PolyE4Y1; read-out: Kinase half maximal inhibitory concentration IC50 TRKB
pIC50: −log10 of the molar value.
We use 8 as the dividing line for pIC50: on or above the line is y, below is n.

Structure string | Group label
O=C1N[C@H]2C[C@H](C2)Oc2ccc(F)cc2CN2c3nc4c1c(Br)nn4cc3OC[C@H]2C(F)F | y
CC1(C)COc2ccc(F)cc2CN2c3nc4c(c(C5CC5)nn4cc3OC[C@H]2C(F)F)C(=O)N1 | n
CC1(C)COc2ccc(F)cc2CN2c3nc4c(c(Br)nn4cc3OC[C@H]2C(F)F)C(=O)N1 | y
CON=C1NCC2(CC2)COc2ccc(F)cc2CN2c3nc4c1cnn4cc3OC[C@H]2C(F)F | y
N#Cc1nn2cc3c4nc2c1C(=O)N[C@H]1C[C@H](C1)Oc1ccc(F)cc1CN4[C@H](C(F)F)CO3 | y

====

Target: CYP2D6 (Homo sapiens, UniProt P10635)
Sequence (P10635 whole entry): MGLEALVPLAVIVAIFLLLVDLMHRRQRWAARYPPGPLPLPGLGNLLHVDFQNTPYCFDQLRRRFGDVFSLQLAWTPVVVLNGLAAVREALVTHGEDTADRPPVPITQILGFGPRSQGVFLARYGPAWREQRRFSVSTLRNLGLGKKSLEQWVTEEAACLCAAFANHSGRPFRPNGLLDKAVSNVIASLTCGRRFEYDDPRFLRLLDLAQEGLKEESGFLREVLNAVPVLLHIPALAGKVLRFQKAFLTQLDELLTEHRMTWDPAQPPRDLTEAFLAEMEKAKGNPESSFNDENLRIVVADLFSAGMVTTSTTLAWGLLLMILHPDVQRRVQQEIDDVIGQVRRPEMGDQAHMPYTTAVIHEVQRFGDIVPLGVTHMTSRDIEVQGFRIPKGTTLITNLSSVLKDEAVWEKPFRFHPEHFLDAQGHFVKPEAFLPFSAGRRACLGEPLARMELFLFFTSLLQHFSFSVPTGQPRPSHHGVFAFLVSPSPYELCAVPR

Compound | IC50
Cc1nn2cc3c4nc2c1C(=O)NC1(CC1)COc1ccc(F)cc1CN4[C@H](C(F)F)CO3 [Compound 016] | > 50 µM

====

Test: In vivo pharmacokinetic testing in mice
Parameters: species or system male CD-1 mice
Settings: mouse, IV, 0.5 mg/kg, plasma, read-out: Half-life T1/2 (converted)

Compound | half-life [h]
C#Cc1nn2cc3c4nc2c1C(=O)NC(C)(C)COc1ccc(F)cc1CN4[C@H](C(F)F)CO3 [Compound 019] | 1.28

====

Below, each of the molecules is paired with its reported IC50 value.
Target: ALK(G1202R/L1196M) (Homo sapiens, UniProt Q9UM73, G1202R/L1196M)
Construct: purchased Carna
Sequence (Q9UM73 19-1620 L1196M/G1202R): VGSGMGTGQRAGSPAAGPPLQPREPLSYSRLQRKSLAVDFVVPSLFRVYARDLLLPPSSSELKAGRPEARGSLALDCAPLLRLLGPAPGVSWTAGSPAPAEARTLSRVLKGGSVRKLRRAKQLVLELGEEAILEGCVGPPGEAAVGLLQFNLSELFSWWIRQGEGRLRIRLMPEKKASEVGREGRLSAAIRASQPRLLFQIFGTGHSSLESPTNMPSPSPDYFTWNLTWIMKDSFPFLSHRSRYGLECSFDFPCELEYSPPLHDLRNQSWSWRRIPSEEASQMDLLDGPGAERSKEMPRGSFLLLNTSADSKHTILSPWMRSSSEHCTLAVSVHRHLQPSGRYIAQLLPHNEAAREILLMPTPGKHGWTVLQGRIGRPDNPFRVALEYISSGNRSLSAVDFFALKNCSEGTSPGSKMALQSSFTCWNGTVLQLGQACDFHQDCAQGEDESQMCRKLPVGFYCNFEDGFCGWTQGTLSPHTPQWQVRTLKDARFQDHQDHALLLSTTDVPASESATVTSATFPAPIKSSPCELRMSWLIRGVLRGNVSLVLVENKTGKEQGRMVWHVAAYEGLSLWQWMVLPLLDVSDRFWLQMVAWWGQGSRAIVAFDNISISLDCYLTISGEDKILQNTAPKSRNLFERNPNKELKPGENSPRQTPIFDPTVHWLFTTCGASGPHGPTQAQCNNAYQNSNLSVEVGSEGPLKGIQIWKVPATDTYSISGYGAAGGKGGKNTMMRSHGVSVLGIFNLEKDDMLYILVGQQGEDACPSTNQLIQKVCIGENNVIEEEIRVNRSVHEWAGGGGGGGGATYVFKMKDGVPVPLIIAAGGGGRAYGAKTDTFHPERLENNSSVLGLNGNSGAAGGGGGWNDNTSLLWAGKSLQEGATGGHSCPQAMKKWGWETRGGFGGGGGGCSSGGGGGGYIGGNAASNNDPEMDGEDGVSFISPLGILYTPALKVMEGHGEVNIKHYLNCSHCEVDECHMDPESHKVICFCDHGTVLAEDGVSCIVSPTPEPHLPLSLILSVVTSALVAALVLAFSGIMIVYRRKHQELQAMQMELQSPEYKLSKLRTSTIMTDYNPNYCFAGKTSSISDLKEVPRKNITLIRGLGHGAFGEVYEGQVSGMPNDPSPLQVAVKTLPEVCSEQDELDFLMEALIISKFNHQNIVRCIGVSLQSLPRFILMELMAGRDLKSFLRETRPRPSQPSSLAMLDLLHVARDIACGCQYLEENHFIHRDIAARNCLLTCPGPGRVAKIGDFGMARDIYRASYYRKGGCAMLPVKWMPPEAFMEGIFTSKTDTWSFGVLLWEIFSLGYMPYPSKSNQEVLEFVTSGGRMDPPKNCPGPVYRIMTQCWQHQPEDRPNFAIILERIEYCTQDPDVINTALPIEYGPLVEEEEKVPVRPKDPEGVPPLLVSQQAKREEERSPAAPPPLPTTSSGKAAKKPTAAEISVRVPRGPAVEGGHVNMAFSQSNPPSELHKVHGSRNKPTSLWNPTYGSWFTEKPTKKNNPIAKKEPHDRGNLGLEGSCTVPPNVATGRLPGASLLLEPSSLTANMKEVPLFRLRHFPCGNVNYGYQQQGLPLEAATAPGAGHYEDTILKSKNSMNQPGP
Test: In vitro kinase inhibitory activity assay, Experimental method 2 (ADP-Glo)
Type: biochemical

Structure string | IC50 (nM)
CC1(C)COc2ccc(F)cc2CN2c3nc4c(cc3OC[C@H]2C(F)F)ncn4C(=O)N1 | 1
Cc1nc2cc3c4nc2n1C(=O)NC(C)(C)COc1ccc(F)cc1CN4[C@H](C(F)F)CO3 | 1.5
